# experiment summary: chemical genetic growth profiling, strain panel (AID 1159580);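 also: tested at 20 µM; growth read once vehicle control cultures reached saturation at 30 °C; 1 = growth at the plate median or of vehicle wells; lower values mean less growth of the strain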
# assay setup: S. cerevisiae deletion strains, growth OD, locus YER015W, strain faa2
In all, about 5,500 compounds went through this assay and about 2,000 (36%) were called active. Inconclusive results (about 18%) are left out. Rule as the data show it: active = normalized growth mostly below about 0.91 (no sharp cut-off); inconclusive = no clear call, values can overlap the other calls; inactive = mostly above about 0.92. Some of the results follow. Where a SMILES comes first, the peptide text is derived from it.
Outcomes: label 1 for active, label 0 for inactive

compound	class
COC(=O)[C@H](Cc1ccccc1)NC(=O)[C@@H](N)CC(=O)O (H-Asp-Phe-OMe)	label 0
O=C1[O][Bi][O]c2ccccc21	label 0
NC(=O)c1ncn([C@@H]2O[C@H](CO)[C@@H](O)[C@H]2O)n1	label 0
CC1(C)O[C@H]2CC(=O)OC[C@]23[C@H]2CC[C@@]4(C)[C@H](c5ccoc5)OC(=O)[C@H]5O[C@]54[C@]2(C)C(=O)C[C@@H]13	label 0
CC(C)c1c(O)ccc2c1CCC1C(C)(C)CCC[C@]21C (stereo partly drawn)	label 1
COC1=CC(=O)C(O)=C/C1=C\C=C\c1ccccc1	label 1
CC(CC(O)C1OC1(C)C)[C@@H]1CCC2(C)C3=CCC4C(C)(C)C(=O)CCC4(C)C3CC[C@@]12C (stereo partly drawn)	label 0
COc1cc(OC)c2c(=O)c(OC)c(-c3ccc(OC)c(OC)c3)oc2c1	label 0
COc1ccc(-c2oc3c(CC=C(C)C)c(O[C@@H]4O[C@H](CO)[C@@H](O)[C@H](O)[C@H]4O)cc(O)c3c(=O)c2O[C@@H]2O[C@@H](C)[C@H](O)[C@@H](O)[C@H]2O)cc1	label 0
CC[n+]1c(-c2ccccc2)c2cc(N)ccc2c2ccc(N)cc21	label 0
CCCCCc1c2c(cc(O)c1C(=O)O)OC(=O)c1c(cc(OC)cc1C(=O)CCCC)O2	label 0
CC(=O)O[C@@H]1CC2C(C)(C)C(=O)C=C[C@]2(C)C2CC[C@@]3(C)[C@H](c4ccoc4)OC(=O)[C@H]4O[C@]43[C@@]21C (stereo partly drawn)	label 0
CC(=O)Oc1ccc2c(c1OC(C)=O)OCC1(O)Cc3c(cc(OC(C)=O)c(OC(C)=O)c3OC(C)=O)C21 (stereo not drawn)	label 0
Oc1ccc2c(c1)OCC1(O)Cc3cc(O)c(O)cc3C21 (stereo not drawn)	label 0
NC(=NCCC[C@H](N)C(=O)O)N[N+](=O)[O-]	label 0
NS(=O)(=O)c1cc(C2(O)NC(=O)c3ccccc32)ccc1Cl (stereo not drawn)	label 0
CC(C)c1c(O)ccc2c1CCC1[C@@](C)(CO)CCC[C@]21C (stereo partly drawn)	label 0
COc1ccc2c(c1)CCC1C2CCC2(C)C1C[C@@H](O)C2O (stereo partly drawn)	label 0
CN[C@@H]1[C@@H](O)C(OC2[C@@H](N)C[C@@H](N)[C@H](O[C@H]3O[C@H](C(C)O)[C@@H](O)[C@H](O)[C@H]3N)[C@H]2O)OC[C@]1(C)O (stereo partly drawn)	label 0
COc1ccc(-c2cc(=O)c3c(O)cc(O[C@H]4O[C@H](CO[C@@H]5O[C@@H](C)[C@H](O)[C@@H](O)[C@H]5O)[C@@H](O)[C@H](O)[C@H]4O)cc3o2)cc1	label 0
O=c1ccc2cc(OC3OC(CO)C(O)C(O)C3O)c(O)cc2o1 (stereo not drawn)	label 0
CC(C)N(CCC(C(N)=O)(c1ccccc1)c1ccccn1)C(C)C (stereo not drawn)	label 1
CC(=O)O[C@]1(C(C)=O)CCC2C3C=C(Cl)C4=CC(=O)[C@@H]5C[C@@H]5[C@]4(C)C3CC[C@@]21C (stereo partly drawn)	label 0
C[C@]12C=CC(=O)C=C1CCC1C2[C@@H](O)C[C@@]2(C)C1CC[C@]2(O)C(=O)COP(=O)(O)O (stereo partly drawn)	label 0
CCCC(C)(COC(N)=O)COC(=O)NC(C)C (stereo not drawn)	label 0
CC(C)[N+](C)(CCC(C(N)=O)(c1ccccc1)c1ccccc1)C(C)C	label 0
COc1ccc2c(c1)CCC1C2CC[C@@]2(C)C1CC[C@@H]2O (stereo partly drawn)	label 1
COC(=O)[C@]1(C)CCC[C@]2(C)c3ccc(C(C)C)cc3C(=O)CC12 (stereo partly drawn)	label 0
COc1cccc2c(C)cc(=O)[nH]c12	label 0
CC1(C)C=CC(=O)[C@@]2(C)C1CC(=O)[C@]1(C)C2CC[C@@]2(C)[C@H](c3ccoc3)OC(=O)C3OC321 (stereo partly drawn)	label 0
CCCCC1C(=O)N(c2ccccc2)N(c2ccc(O)cc2)C1=O (stereo not drawn)	label 0
CC1(C)C2CC(=O)[C@]3(C)C(CC[C@@]4(C)[C@H](c5ccoc5)OC(=O)[C@H]5O[C@]543)[C@@]2(C)C(=O)C[C@H]1O (stereo partly drawn)	label 0
COc1cc(OC)c2c(=O)c(O)c(-c3ccc(OC)c(OC)c3)oc2c1	label 1

###

Catalogue of molecules with associated normalized growth
# experiment summary: chemical genetic growth profiling, strain panel (AID 1159580);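 also: tested at 20 µM; growth read once vehicle control cultures reached saturation at 30 °C; 1 = growth at the plate median or of vehicle wells; lower values mean less growth of the strain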
# assay setup: S. cerevisiae deletion strains, growth OD, locus YHR030C, strain SLT2, hits give low values
Among all 5,500 compounds or so, about 2,000 (36%) were called active. Roughly 18% stayed inconclusive and do not appear here. This is one part of the list.

molecule	normalized growth
CCCCNC(=S)N/N=C\c1cc(Cl)cc(Cl)c1O	0.275
CC(C)(O)[C@@H]1Cc2cc3ccc(=O)oc3cc2O1	1.01
O=C1Nc2ccccc2/C1=C\c1c(Cl)cccc1Cl	0.985
O=C1CC(Nc2ccccc2)C=C1Nc1ccccc1 (stereo not given)	1.01
CC(C)(C)NC(=S)N/N=C\c1ccccc1O	0.901
COCCCNC(=S)N/N=C\c1cccc(OC)c1O	1.01
COCCCNC(=S)N/N=C\c1cc(Br)ccc1O	0.898
CCOC(=O)N/N=C\c1ccccc1OCC	1.02
COc1ccc(/C=C2/C(=O)Nc3ccccc32)cc1	0.667
O=C1Nc2ccccc2/C1=C/c1ccc(Oc2ccccc2)nc1	0.615
COC(=O)CSc1ncnc2c(C)csc12	0.802
CCC(c1ccc(O)cc1)C(CC)c1ccc(O)cc1 (stereo not given)	0.993
CC(=O)OC1CN2CCC1CC2 (stereo not given)	1
CCC(=O)O[C@H](CC(=O)O)C[N+](C)(C)C	1.02
COc1ccccc1NC(=S)N/N=C\c1ccccc1O	0.903
Oc1ccc2c(c1)OCC1(O)Cc3cc(O)c(O)cc3C21 (stereo not given)	0.995
O=C1Nc2ccccc2/C1=C/c1ccc(C(F)(F)F)cc1Cl	0.741
C[C@H]1O[C@H](OC2[C@@H](O)[C@@H](O)C(O)[C@H](O)[C@H]2O)[C@@H](N)C[C@@H]1N=C(N)C(=O)O (stereo not given in full)	0.951
CN(C)C=Nc1nnc(Sc2nc3cc(Cl)ccc3s2)s1	0.631
COC(=O)CSc1nc2ccc(Cl)cc2s1	0.491

###

Form field: normalized growth (one value per entry).
# experiment summary: chemical genetic growth profiling, strain panel (AID 1159580);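 also: tested at 20 µM; growth read once vehicle control cultures reached saturation at 30 °C; 1 = growth at the plate median or of vehicle wells; lower values mean less growth of the strain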
# assay setup: S. cerevisiae deletion strains, growth OD, locus YNL322C, strain KRE1, hits give low values
In all, about 5,500 compounds went through this assay and about 2,000 (36%) were called active. About 18% were inconclusive and are not listed. Some of the results follow.

compound	normalized growth
NC(=O)CN1CCCC1=O	1
NC(N)=NC(=O)c1nc(Cl)c(N2CCCCCC2)nc1N	1.01
C=C1SC(Nc2cccc(C(F)(F)F)c2)=NC12CCCCC2	1.01
N#C/C(=C\c1ccc(O)c(O)c1)C(=O)NCCCNC(=O)/C(C#N)=C/c1ccc(O)c(O)c1	0.981
NC(=NCc1ccccc1)NC(=O)c1nc(Cl)c(N)nc1N	1.01
CN1C(C)(C)CCCC1(C)C	1.02
O=c1c(O)c(-c2ccc(O)c(O)c2)oc2cc(O)cc(O)c12	0.929
CC(C)(C)NCC(O)c1cc(Cl)c(N)c(Cl)c1 (stereo not given)	1.01
CC1(C)C(=O)C=C[C@@]2(C)C1C=C[C@]1(C)C2CC[C@@]2(C)[C@H](c3ccoc3)OC(=O)C3OC321 (stereo not given in full)	0.983
CC1O[C@@H](Oc2c(-c3ccc(O)c(O)c3)oc3cc(O)cc(O)c3c2=O)[C@H](O)[C@H](O)[C@H]1O (stereo not given in full)	0.984
C[C@@H]1O[C@@H](OC[C@H]2OC(Oc3c(-c4ccc(O)c(O)c4)oc4cc(O)cc(O)c4c3=O)[C@H](O)[C@@H](O)[C@@H]2O)[C@H](O)[C@H](O)[C@H]1O (stereo not given in full)	1.01
CC(=O)O[C@@H]1CC(=O)[C@@]2(C)C(CC(=O)[C@]3(C)C2CC[C@@]2(C)[C@H](c4ccoc4)OC(=O)C4OC423)C1(C)C (stereo not given in full)	1
OC1(C(F)(F)F)CC(c2ccc3ccccc3c2)=NN1 (stereo not given)	0.571
O=C1C=C2C(=CCOC2O)O1 (stereo not given)	0.815
CCN(Cc1ccncc1)C(=O)C(CO)c1ccccc1 (stereo not given)	0.992
CCCCOc1cc(C(=O)NCCN(CC)CC)c2ccccc2n1	1
COc1ccc(-c2cc(=O)c3c(O)cc(O[C@@H]4O[C@H](CO[C@H]5O[C@H](C)[C@@H](O)[C@H](O)[C@@H]5O)[C@@H](O)[C@H](O)[C@H]4O)cc3o2)cc1O	1
Cc1cc(I)c(C)cc1I	1
O=c1c(O)c(-c2ccc(O)cc2O)oc2cc(O)cc(O)c12	1
O=C(Cc1cccs1)NC1C(=O)N2C(C(=O)[O-])=C(C[n+]3ccccc3)CSC12 (stereo not given)	1
O=c1c(O)c(-c2cc(O)c(O)c(O)c2)oc2cc(O)cc(O)c12	0.898
NC(N)=NC(=O)c1nc(Cl)c(N)nc1N	1.01
COc1ccc(-c2cc(=O)c3c(O)cc(O[C@H]4O[C@H](CO[C@@H]5O[C@@H](C)[C@H](O)[C@@H](O)[C@H]5O)[C@@H](O)[C@H](O)[C@H]4O)cc3o2)cc1	1
CN[C@@H]1C(O)[C@@H](O[C@@H]2[C@@H](O)[C@H](O[C@H]3OC(CN)=CC[C@H]3N)[C@@H](N)C[C@H]2N)OC[C@]1(C)O (stereo not given in full)	1.02
CCN1C[C@]2(C)CC[C@H](OC)[C@]34C2[C@H](O)[C@]2(OCO[C@@]25C[C@H](OC)[C@H]2C[C@]3(O)C5[C@H]2O)C14	1
COc1cc(O)c2c(=O)c(O)c(-c3ccc(O)c(O)c3)oc2c1	0.952
COc1ccc(-c2oc3cc(O[C@H]4O[C@H](CO)[C@@H](O)[C@H](O)[C@H]4O)c(OC)c(O)c3c(=O)c2OC)cc1O	0.985
CC(C)(C)c1cc(/C=C(\C#N)C(N)=S)cc(C(C)(C)C)c1O	1.02
Oc1cc2c(cc1O)C1c3ccc(O)c(O)c3OCC1(O)C2 (stereo not given)	0.902
CC(=O)OCC1=C(C(=O)O)N2C(=O)[C@@H](NC(=O)Cc3cccs3)[C@H]2SC1	0.989
